B1: glmS ribozyme (parent)
chain: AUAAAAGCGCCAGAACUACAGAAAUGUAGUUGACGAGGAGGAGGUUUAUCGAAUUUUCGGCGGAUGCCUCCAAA

- Variants of: B1
- protocol.summary: self-cleavage kobs at 640 uM GlcN6P; higher = faster cleavage; RNA array
- protocol.conditions: with glucosamine-6-phosphate
This sample holds only a part of the variants without activity.
measured.parameter: self-cleavage kobs at 640 uM GlcN6P (s⁻¹)
Give just the number in s⁻¹; leave the unit off.

These recorded examples may help you get a feel for the data.
>>> print(df.to_string())
                        biopolymer_sequence  obs_value
0  AUAAAAGCGCCAGAACUACAGAAAUGUACUUGACGAGGAGGAGGUUUAUCGAAUUUUCGGCGGAUGCCUCUAAA   0.000356
1  AUAAAAGCGCCAGGUCUACAGAAAUGUAGUUGACGAGGAGGAGGUUUUUCGAAUUUUCGGCGGAUGCCCCCAAA   6.32e-05
2  AUAAAAGCGCCAGAACUACAGAAAUGUAGUUGACGAGGAGGAGGUUCAUCGAAUUUUAGGCGGAUGCCUCCAAA   3.95e-05
3  AUAAAAGCGCCAGAACUACAGAAAUGUAGUUGACGAGGAGGAGGUUUAUCGAAUUUUGGGCGGAUGCUUCCAAA   5.45e-05

Now take the following variant into account.
input: self-cleavage kobs at 640 uM GlcN6P for AUAAAAGCGCCAGAAGUACAGAAAUGUAGUUGACGAAGAGGAGGAUUAUCGAAUUUUCGGCGGAUGCCUCCAAA ?
output: 8.21e-05
